Experiment: In vivo pharmacokinetic study
Design: species or system rat
Details: male, Wistar, rat, serum, ip, 10 mg/kg
assay.readout: MRT inf (h)
Numbers only; they are read as h.

Looking up "CC1=NN(c2cccc(Cl)c2)C(=O)/C1=C\c1cn(-c2nc(N3CCOCC3)nc(N3CCOCC3)n2)c2ccccc12" , I see its MRT inf listed as 8.16

* * *

System: Swiss albino mice
Experiment: Formalin-induced hyperalgesia
Type: in vivo
Settings: Mus musculus, ip, read-out: % inhibition of algesia (analgesic effect), 10 mg kg^–1 i.p. 30 min before formalin, Swiss albino mice
assay.readout: inhibition in vivo at 10 mg/kg (%)
Reply with just the number (in %).

Briefly, inhibition in vivo at 10 mg/kg measured for O=Cc1cn(-c2nc(N3CCOCC3)nc(N3CCOCC3)n2)c2ccccc12 [Compound 2] : 57.4

Value of inhibition in vivo at 10 mg/kg reported for the compound O=C1Nc2ccccc2/C1=C/c1cn(-c2nc(N3CCCCC3)nc(N3CCOCC3)n2)c2ccccc12 [Compound 10] is 54.9

Reported inhibition in vivo at 10 mg/kg for CC1=NN(c2cccc(Cl)c2)C(=O)/C1=C\c1cn(-c2nc(N3CCCCC3)nc(N3CCCCC3)n2)c2ccccc12 [Compound 22] was 61.9

Sure, the documented inhibition in vivo at 10 mg/kg for CC1=NN(c2cccc(Cl)c2)C(=O)/C1=C\c1cn(-c2nc(N3CCCCC3)nc(N3CCOCC3)n2)c2ccccc12 [Compound 12] is 74.2

Consider O=C1/C(=C\c2cn(-c3nc(N4CCOCC4)nc(N4CCOCC4)n3)c3ccccc23)c2ccccc2N1c1c(Cl)cccc1Cl [Compound 3] . Its measured inhibition in vivo at 10 mg/kg is 55.6

Lab note: measured inhibition in vivo at 10 mg/kg of CC1=NN(c2cccc(Cl)c2)C(=O)/C1=C\c1cn(-c2nc(Cl)nc(N3CCOCC3)n2)c2ccccc12 [Compound 18] was 59

Lab note: O=C1Nc2ccccc2/C1=C/c1cn(-c2nc(N3CCOCC3)nc(N3CCOCC3)n2)c2ccccc12 [Compound 4] gave inhibition in vivo at 10 mg/kg of 61.3
